Each record here notes measured melting point.

As a guide, the following entries are already answered.
molecule	property-name	observed-value
COc1ccc(-n2c(-c3ccc([N+](=O)[O-])cc3)nnc2C(C)O)cc1 (stereo not given)	melting point	140 °C
CC1(C)C(=O)N(c2ccc(C#N)c(C(F)(F)F)c2)C(=S)N1CCCO	melting point	149 to 150 °C
CC(C)(C)COc1ccc(N(CC(=O)O)C(=O)c2ccn(-c3ccc(F)cc3)c2)cc1C#N	melting point	248 to 249 °C

Q: Look up melting point for this molecule: CNCCON=C1c2ccccc2C2CC2c2ccccc21 (stereo not given)
Ans: 100 to 101 °C

Q: Report melting point for O=C(CNc1ccccc1)Nc1c(Cl)ccc2nc(N3CC[C@@H](O)C3)ccc12 please.
Ans: 230 to 232 °C
